# assay_name: Fraction unbound in Sprague-Dawley rat brain homogenates at 1 uM after 6 hrs by equilibrium dialysis method
# particulars: brain homogenate
Assign fraction unbound at 6 h, 1 µM to each entry below.
Number only, please.

Lookup: Please look up its fraction unbound at 6 h, 1 µM: CC(C)(C)NCC(O)COc1ccc(NC(=O)NC2CCCCC2)cc1 (centres undefined) [TALINOLOL]
Found: 0.096

Lookup: Another: CCCCN1CCCCC1C(=O)Nc1c(C)cccc1C (centres undefined) [BUPIVACAINE]
Found: 0.098

Lookup: Another: O=C1CCc2ccc(OCCCCN3CCN(c4cccc(Cl)c4Cl)CC3)cc2N1 [ARIPIPRAZOLE]
Found: 0.001

Lookup: Another: CCCCCCCN(CC)CCCC(O)c1ccc(NS(C)(=O)=O)cc1 (centres undefined) [IBUTILIDE]
Found: 0.081

Lookup: Another: CC(=O)CC(c1ccccc1)c1c(O)c2ccccc2oc1=O (centres undefined) [WARFARIN]
Found: 0.199

Lookup: Another: CCN(C)C(=O)Oc1cccc([C@H](C)N(C)C)c1 [RIVASTIGMINE]
Found: 0.241

Lookup: Another: C[C@@H](O[C@H]1OCCN(Cc2n[nH]c(=O)[nH]2)[C@H]1c1ccc(F)cc1)c1cc(C(F)(F)F)cc(C(F)(F)F)c1 [APREPITANT]
Found: 0.001

Lookup: Another: Fc1ccc([C@@H]2CCNC[C@H]2COc2ccc3c(c2)OCO3)cc1 [PAROXETINE]
Found: 0.006

Lookup: Another: COCCOC(=O)C1=C(C)NC(C)=C(C(=O)OC(C)C)C1c1cccc([N+](=O)[O-])c1 (centres undefined) [NIMODIPINE]
Found: 0.009

====

# assay_name: Fraction unbound in cynomolgus monkey brain homogenates at 1 uM after 6 hrs by equilibrium dialysis method
# particulars: brain homogenate
Binary label based on fraction unbound at 6 h, 1 µM with cut-off 0.1: below gives t, not below gives f.

Lookup: Identify whether the compound CCCCN1CCCCC1C(=O)Nc1c(C)cccc1C (stereo unspecified) records fraction unbound at 6 h, 1 µM below 0.1.
Found: f

Lookup: Another: CC(=O)CC(c1ccccc1)c1c(O)c2ccccc2oc1=O (stereo unspecified)
Found: f

Lookup: Another: CC(C)C[C@H]1C(=O)N2CCC[C@H]2[C@]2(O)O[C@](NC(=O)[C@@H]3C=C4c5cccc6[nH]c(Br)c(c56)C[C@H]4N(C)C3)(C(C)C)C(=O)N12
Found: t

Lookup: Another: COC(=O)C1=C(C)NC(C)=C(C(=O)OCCN(C)Cc2ccccc2)C1c1cccc([N+](=O)[O-])c1 (stereo unspecified)
Found: t

Lookup: Another: CCN(CC)CCNC(=O)c1cc(Cl)c(N)cc1OC [METOCLOPRAMIDE]
Found: f

Lookup: Another: CCCCCCCN(CC)CCCC(O)c1ccc(NS(C)(=O)=O)cc1 (stereo unspecified) [IBUTILIDE]
Found: t

Lookup: Another: CC(NC(C)(C)C)C(=O)c1cccc(Cl)c1 (stereo unspecified)
Found: f

Lookup: Another: O=c1n(CCCN2CCN(c3cccc(Cl)c3)CC2)nc2ccccn12
Found: t

Lookup: Another: COCCOC(=O)C1=C(C)NC(C)=C(C(=O)OC(C)C)C1c1cccc([N+](=O)[O-])c1 (stereo unspecified)
Found: t

Lookup: Another: CC(C)(C)NCC(O)COc1ccc(NC(=O)NC2CCCCC2)cc1 (stereo unspecified)
Found: f
